Origin of measurements: patent US9695133B2

# Method Summary: Plasma pharmacokinetics after single IV and PO dose
# Format: in vivo, male C57BL6/j mice
# Test Context: male, C57BL6/j, mouse; plasma, IV 20 mg/kg
Quantity Measured: Cmax (ng/mL)
Record the value in ng/mL, omitting the unit from your answer.

Lab note: measured Cmax of `CC(C)Oc1ccc(CN2CCNCC2)cc1-n1c(CN2CCN(C(=O)COc3ccc(Cl)cc3)CC2)nc2ccccc2c1=O` was 3220

* * *

# Method Summary: Plasma pharmacokinetics after single IV and PO dose
# Type: in vivo, male C57BL6/j mice
# Test Context: male, C57BL6/j, mouse; plasma, IV 20 mg/kg
Quantity Measured: AUC(0-t) (ng·h/mL)
Record the value in ng·h/mL, omitting the unit from your answer.

Lab note: measured AUC(0-t) of `CC(C)Oc1ccc(CN2CCNCC2)cc1-n1c(CN2CCN(C(=O)COc3ccc(Cl)cc3)CC2)nc2ccccc2c1=O` was 8100
